tested on: Acinetobacter baumannii ATCC17961; test: Antimicrobial susceptibility testing: 90% growth inhibitory concentration (IC90) determination, Iso-Sensitest broth; assay type: cell-based; conditions: Acinetobacter baumannii, ATCC17961, 90% growth inhibitory concentration, Acinetobacter baumannii ATCC17961, Iso-Sensitest broth; read-out: ATCC 17961 IC90
Structures can show the parent of a compound that is named as a salt.

Molecule: Cn1c(-c2ccc(OC(F)F)c(F)c2Cl)cnc1C(=O)Nc1ccc(C(=O)N2CCN(C(=O)C[C@@H]3CCNC3)CC2)c(Cl)c1 [Example 147, formate]
IC90 [nM]: 40
//
Molecule: Cn1c(-c2ccc(OC(F)F)c(F)c2F)cnc1C(=O)Nc1ccc(C(=O)N2CCN(C(=O)C3CCN(C(=O)C4(O)CCNCC4)CC3)CC2)c(Cl)c1 [Example 179, formate]
IC90 [nM]: 50
//
Molecule: COc1ccc(-c2cnc(C(=O)Nc3ccc(C(=O)N4CCN(C(=O)C5CCN(C(=O)CN(C)C)CC5)CC4)c(Cl)c3)n2C)c(F)c1F
IC90 [nM]: 60
//
Molecule: Cn1c(-c2ccc(OCF)c(F)c2F)cnc1C(=O)Nc1ccc(C(=O)N2CCN(C(=O)CC3(O)CNC3)CC2)c(Cl)c1 [Example 160, formate]
IC90 [nM]: 40
//
Molecule: Cn1c(-c2ccc(OC(F)F)c(F)c2F)cnc1C(=O)Nc1ccc(C(=O)N2CCC(C(=O)NC[C@@H]3CCNC3)CC2)c(Cl)c1 [Example 47, trifluoroacetate]
IC90 [nM]: 40
//
Molecule: COc1ccc(-c2cnc(C(=O)Nc3ccc(C(=O)N4CC(C(=O)N5CCNCC5)C4)c(Cl)c3)n2C)c(F)c1F [Example 69, formate]
IC90 [nM]: 120

* * *

Tested on: Acinetobacter baumannii ATCC17978
Assay: Antimicrobial susceptibility testing: 90% growth inhibitory concentration (IC90) determination, Iso-Sensitest broth
Format: cell-based
Details: 90% growth inhibitory concentration, Acinetobacter baumannii ATCC17978, Iso-Sensitest broth; read-out: ATCC 17978 IC90
Procedure: The in vitro antimicrobial activity of the compounds was determined according to the following procedure: The assay used a 10-points Iso-Sensitest broth medium to measure quantitatively the in vitro activity of the compounds against Acinetobacter baumannii ATCC17978 or ATCC17961. […] Bacterial cell growth was determined with the measurement of optical density at k=600 nm each 20 minutes over a time course of 16 h. […]
Where a name gives a salt, the structure may show the parent alone.
Measured IC90 by item

Compound: CCc1cc(NC(=O)c2ncc(-c3ccc(OC(C)C)c(F)c3)n2C)ccc1C(=O)N1CCN(CCN(C)C)CC1
Units of measure: nM
IC90: 4020
//
Compound: Cn1c(-c2ccc(OCC#N)c(F)c2F)cnc1C(=O)Nc1ccc(C(=O)N2CCN(C(=O)C3(O)CCNCC3)CC2)c(Cl)c1 [Example 207, trifluoroacetate]
Units of measure: nM
IC90: 50
//
Compound: CN(C)CC(=O)N1CCN(C(=O)c2ccc(NC(=O)c3ncc(-c4ccc(OCC#N)c(F)c4F)n3C)cc2Cl)CC1 [Example 204, formate]
Units of measure: nM
IC90: 40

* * *

Measured IC90 by item
tested on: Acinetobacter baumannii ATCC17978; experiment: Antimicrobial susceptibility testing: 90% growth inhibitory concentration (IC90) determination, Iso-Sensitest broth; format: cell-based; settings: 90% growth inhibitory concentration, Acinetobacter baumannii ATCC17978, Iso-Sensitest broth; read-out: ATCC 17978 IC90
Structures can show the parent of a compound that is named as a salt.

Molecule: COc1ccc(-c2cnc(C(=O)Nc3ccc(C(=O)N4CCN(C(=O)CN(C)C)CC4)c(Cl)c3)n2C)c(F)c1F [Example 104, trifluoroacetate]
IC90 (nM): 70
--
Molecule: Cn1c(-c2ccc(OCC#N)c(F)c2F)cnc1C(=O)Nc1ccc(C(=O)N2CCC(C(=O)N3CCS(=O)(=O)CC3)CC2)c(Cl)c1
IC90 (nM): 100
--
Molecule: COc1ccc(-c2cnc(C(=O)Nc3ccc(C(=O)N4CCC(C(=O)N5CCN[C@@H](CO)C5)CC4)c(Cl)c3)n2C)c(Cl)c1F
IC90 (nM): 130
--
Molecule: COc1ccc(-c2cnc(C(=O)Nc3ccc(C(=O)N4CCN(CCN(C)C)CC4)c(Cl)c3)n2C)c(F)c1F [Example 278, formate]
IC90 (nM): 80
--
Molecule: COc1ccc(-c2cnc(C(=O)Nc3ccc(C(=O)N4CCN(C(=O)[C@@H]5C[C@H](O)CN5)CC4)c(Cl)c3)n2C)c(F)c1F [Example 107, trifluoroacetate]
IC90 (nM): 80
--
Molecule: Cn1c(-c2ccc(OCC#N)c(F)c2F)cnc1C(=O)Nc1ccc(C(=O)N2CCN(C(=O)[C@@H]3CCNC3)CC2)c(Cl)c1 [Example 199, trifluoroacetate]
IC90 (nM): 40
